# TGT: LXR beta (Homo sapiens, UniProt P55055)
# Construct: 5 μL of 4×LXR beta-LBD was added to each well (final concentration 5 nM)
# Sequence (P55055 222-460 limits assumed): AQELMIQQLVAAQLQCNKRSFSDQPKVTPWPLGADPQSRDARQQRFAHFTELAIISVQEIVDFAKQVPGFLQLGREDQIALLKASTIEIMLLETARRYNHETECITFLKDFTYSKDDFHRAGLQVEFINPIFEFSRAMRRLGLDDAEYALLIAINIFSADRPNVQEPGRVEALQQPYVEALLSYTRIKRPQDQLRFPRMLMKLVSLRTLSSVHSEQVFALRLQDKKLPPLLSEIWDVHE
# EXPERIMENTAL DETAILS: LXR beta agonist assay (Lanthascreen TR-FRET)
# CONDITION: LXR beta-LBD 5 nM, read-out: LXR-β EC50
# Lookup of reported EC50 keyed by entry
MEASURED ATTRIBUTE: EC50 (µM)

>>> readout_value("CN(C)C(=O)c1ccc(NC2CN(C3CCN(C(=O)C(O)(C4CCCCC4)C(F)(F)F)CC3)C2)cc1Cl (stereo not shown)")
4.85
>>> readout_value("CN(C)C(=O)c1ccc(NC2CN(C3CCN(C(=O)[C@@](O)(c4ccccc4)C(F)(F)F)CC3)C2)cc1Cl (single isomer, unassigned)")
0.141
>>> readout_value("O=C(NCC(F)F)c1ccc(NC2CN(C3CCN(C(=O)C(O)(c4cccc(Cl)c4)C(F)(F)F)CC3)C2)cc1Cl (stereo not shown)")
1.57
>>> readout_value("CN(C)C(=O)c1ccc(NC2CN(C3CCN(C(=O)C4(c5ccc(Cl)cc5)CCC4)CC3)C2)cc1Cl")
4.3
>>> readout_value("O=C(NCC(F)F)c1ccc(NC2CN(C3CCN(C(=O)[C@](O)(c4ccccc4)C(F)(F)F)CC3)C2)cc1Cl (single isomer, unassigned)")
2.71
>>> readout_value("CN(C)C(=O)c1ccc(NC2CN(C3CCN(C(=O)C4(c5cccc(F)c5)CCC4)CC3)C2)cc1Cl")
3.09
>>> readout_value("CN(C)C(=O)c1ccc(N2CCN(C3CC4(C3)CN(C(=O)[C@@](O)(c3ccccc3)C(F)(F)F)C4)CC2)cc1Cl (single isomer, unassigned)")
1.58
>>> readout_value("CC(C)[C@@](O)(C(=O)N1CCC(N2CC(Nc3ccc(C(=O)N(C)C)c(Cl)c3)C2)CC1)C(F)(F)F (single isomer, unassigned)")
10.9
>>> readout_value("CN(C)C(=O)c1ccc(N2CCC(N3CC4(CN(C(=O)[C@](O)(c5ccccc5)C(F)(F)F)C4)C3)CC2)cc1Cl")
16.3

###

# Lookup of reported pEC50 keyed by entry
# TGT: LXR beta (Homo sapiens, UniProt P55055)
# Construct: 5 μL of 4×LXR beta-LBD was added to each well (final concentration 5 nM)
# EXPERIMENTAL DETAILS: LXR beta agonist assay (Lanthascreen TR-FRET)
# CONDITION: LXR beta-LBD 5 nM, read-out: LXR-β EC50
pEC50: −log10 of the molar value.
MEASURED ATTRIBUTE: pEC50

>>> readout_value("CC1CC(N2CC(Nc3ccc(C(=O)N(C)C)c(Cl)c3)C2)CCN1S(=O)(=O)c1ccccc1Cl (stereo not shown) [Compound 1.84]")
5.94
>>> readout_value("CN(C)C(=O)c1c(Cl)cc(NC2CN(C3CCN(C(=O)[C@](O)(c4ccccc4)C(F)(F)F)CC3)C2)cc1Cl [Compound 1.122]")
5.37
>>> readout_value("CN(C)C(=O)c1ccc(-c2nnc(C3=CCN(C(=O)C(O)(c4ccccc4)C(F)(F)F)CC3)s2)cc1Cl (stereo not shown) [Compound 1.68]")
5.34
>>> readout_value("CN(C)C(=O)c1ccc(C2CCN(C3CC4(C3)CN(C(=O)C(O)(c3ccccc3)C(F)(F)F)C4)CC2)cc1Cl (stereo not shown) [Compound 1.80]")
5.36

###

# Lookup of reported EC50 keyed by entry
# TGT: LXR beta (Homo sapiens, UniProt P55055)
# Construct: 5 μL of 4×LXR beta-LBD was added to each well (final concentration 5 nM)
# EXPERIMENTAL DETAILS: LXR beta agonist assay (Lanthascreen TR-FRET)
# CONDITION: LXR beta-LBD 5 nM, read-out: LXR-β EC50
MEASURED ATTRIBUTE: EC50 (µM)

>>> readout_value("CN(C)C(=O)c1ccc(N(C)C2CN(C3CCN(C(=O)C4(c5ccccc5)CCC4)CC3)C2)cc1Cl")
3.23
>>> readout_value("CN(C)C(=O)c1ccc(NC2CN(C3CC4(C3)CN(C(=O)[C@](O)(c3ccccc3)C(F)(F)F)C4)C2)cc1Cl")
4.22
>>> readout_value("O=C(c1ccc(NC2CN(C3CCN(C(=O)C(O)(c4ccccc4)C(F)(F)F)CC3)C2)cc1Cl)N1CC(F)(F)C1 (stereo not drawn)")
5.71
>>> readout_value("CC(C)C(O)(C(=O)N1CCC(N2CC[C@H](Nc3ccc(C(=O)N(C)C)c(Cl)c3)C2)CC1)C(F)(F)F (stereo partly drawn)")
23.6
>>> readout_value("CC(=O)N1CCN(C(=O)c2ccc(NC3CN(C4CCN(C(=O)[C@@](O)(c5ccccc5)C(F)(F)F)CC4)C3)cc2Cl)CC1 (single isomer, unassigned)")
2.25
>>> readout_value("CN(C)C(=O)c1ccc(NC2CN(C3CCN(C(=O)[C@@](O)(c4cccc(Cl)c4)C(F)(F)F)CC3)C2)cc1Cl (single isomer, unassigned)")
0.241

###

# Lookup of reported IC50 keyed by entry
# Test system: HCT116
# EXPERIMENTAL DETAILS: Cell viability assay (resazurin) in HCT116
# Type: cell-based
# CONDITION: Homo sapiens, HCT-116; 96 hr exposure
MEASURED ATTRIBUTE: IC50

>>> readout_value("CN(C)C(=O)c1ccc(-c2nnc(N3CCC4(CCN(S(=O)(=O)c5ccccc5Cl)CC4)C3)s2)cc1Cl [Compound 1.50]")
"15.4 µM"
>>> readout_value("CC(C)C(O)(C(=O)N1CCC(N2CC[C@@H](Nc3ccc(C(=O)N(C)C)c(Cl)c3)C2)CC1)C(F)(F)F (stereo partly shown) [Compound 1.58]")
"> 30 µM"
>>> readout_value("CN(C)C(=O)c1ccc(N[C@@H]2CCN(C3CCN(C(=O)[C@](O)(c4ccccc4)C(F)(F)F)CC3)C2)cc1Cl [Compound 1.57]")
"> 30 µM"
>>> readout_value("CN(C)C(=O)c1ccc(-c2cncc(C3=CCN(S(=O)(=O)c4ccccc4Cl)CC3)c2)cc1Cl [Compound 1.39]")
"> 30 µM"

###

# Tested on: A549
# EXPERIMENTAL DETAILS: Cell viability assay (resazurin) in A549
# Type: cell-based
# CONDITION: Homo sapiens, 96 hr exposure
# Source text: […]
pIC50: −log10 of the molar value.
# Lookup of reported pIC50 keyed by entry
MEASURED ATTRIBUTE: pIC50

>>> readout_value("CN(C)C(=O)c1ccc(NC2CN(C3CCN(C(=O)C(O)(c4ccccc4)C(F)(F)F)CC3)C2)cc1Cl (centres unmarked)")
"< 4.52"
>>> readout_value("CN(C)C(=O)c1ccc(-c2cncc(C3=CCN(S(=O)(=O)c4ccccc4Cl)CC3)c2)cc1Cl")
"< 4.52"
>>> readout_value("CN(C)C(=O)c1ccc(NC2CN(C3CCN(C(=O)C(F)(F)c4ccccc4Cl)CC3)C2)cc1Cl")
"< 4.52"
>>> readout_value("CN(C)C(=O)c1ccc(N[C@@H]2CCN(C3CCN(C(=O)[C@](O)(c4ccccc4)C(F)(F)F)CC3)C2)cc1Cl")
"< 4.52"
>>> readout_value("CN(C)C(=O)c1ccc(N2CCN(C3CC4(C3)CN(C(=O)[C@](O)(c3ccccc3)C(F)(F)F)C4)CC2)cc1Cl (single isomer, unassigned)")
"< 4.52"
>>> readout_value("CN(C)C(=O)c1ccc(N[C@H]2CCN(C3CCN(C(=O)[C@](O)(c4ccccc4)C(F)(F)F)CC3)C2)cc1Cl")
"< 4.52"
>>> readout_value("CC(C)C(O)(C(=O)N1CCC(N2CC[C@@H](Nc3ccc(C(=O)N(C)C)c(Cl)c3)C2)CC1)C(F)(F)F (some centres unmarked)")
"< 4.52"
>>> readout_value("CN(C)C(=O)c1ccc(NC2CN(C3CCN(C(=O)C4(c5ccc(F)cc5)CCC4)CC3)C2)cc1Cl")
4.82
>>> readout_value("CN(C)C(=O)c1ccc(N2CCN(C3CC4(C3)CN(C(=O)C(O)(c3ccccc3)C(F)(F)F)C4)CC2)cc1Cl (centres unmarked)")
"< 4.52"
>>> readout_value("CN(C)C(=O)c1ccc(NC2CN(C3CCN(C(=O)C4(c5cccc(F)c5)CCC4)CC3)C2)cc1Cl")
"< 4.52"
>>> readout_value("CN(C)C(=O)c1ccc(NC2CN(C3CCN(C(=O)C4(c5c(F)cccc5Cl)CCCC4)CC3)C2)cc1Cl")
4.91
>>> readout_value("CC(C)C(O)(C(=O)N1CCC(N2CC[C@H](Nc3ccc(C(=O)N(C)C)c(Cl)c3)C2)CC1)C(F)(F)F (some centres unmarked)")
"< 4.52"
>>> readout_value("CC(C)[C@@](O)(C(=O)N1CCC(N2CC(Nc3ccc(C(=O)N(C)C)c(Cl)c3)C2)CC1)C(F)(F)F (single isomer, unassigned)")
"< 4.52"
>>> readout_value("CN(C)C(=O)c1ccc(N2CCC(N3CC4(CN(C(=O)[C@](O)(c5ccccc5)C(F)(F)F)C4)C3)CC2)cc1Cl")
"< 4.52"
>>> readout_value("CN(C)C(=O)c1ccc(NC2CCN(C3CCN(C(=O)[C@](O)(c4ccccc4)C(F)(F)F)CC3)CC2)cc1Cl")
"< 4.52"
>>> readout_value("CN(C)C(=O)c1ccc(-c2nnc(C3=CCN(S(=O)(=O)c4ccccc4Cl)CC3)s2)cc1Cl")
"< 4.52"
>>> readout_value("CN(C)C(=O)c1ccc(NC2CN(C3CCN(C(=O)C4(c5ccccc5)CCC4)CC3)C2)cc1Cl")
4.70
>>> readout_value("CC(C)C(O)(C(=O)N1CCC2(CC1)CN(C1CCN(c3ccc(C(=O)N(C)C)c(Cl)c3)CC1)C2)C(F)(F)F (centres unmarked)")
"< 4.52"
>>> readout_value("CN(C)C(=O)c1ccc(-c2nnc(N3CC4(CCN(S(=O)(=O)c5ccccc5Cl)CC4)C3)s2)cc1Cl")
5.35
>>> readout_value("CC(C)[C@](O)(C(=O)N1CCC(N2CC(Nc3ccc(C(=O)N(C)C)c(Cl)c3)C2)CC1)C(F)(F)F (single isomer, unassigned)")
"< 4.52"
>>> readout_value("CC(C)C(O)(C(=O)N1CCC(N2CC(Nc3ccc(C(=O)N(C)C)c(Cl)c3)C2)CC1)C(F)(F)F (centres unmarked)")
"< 4.52"
>>> readout_value("CN(C)C(=O)c1ccc(NC2CN(C3CCN(C(=O)[C@@](O)(c4ccccc4)C(F)(F)F)CC3)C2)cc1Cl (single isomer, unassigned)")
"< 4.52"
>>> readout_value("O=C(N1CCC(C2CCN(c3cc(Cl)c4c(=O)[nH]ccc4c3)CC2)CC1)[C@](O)(c1ccccc1)C(F)(F)F")
5.16
>>> readout_value("CN(C)C(=O)c1ccc(-c2nnc(N3CCC4(CCN(S(=O)(=O)c5ccccc5Cl)CC4)C3)s2)cc1Cl")
4.84
>>> readout_value("CN(C)C(=O)c1ccc(NC2CN(C3CCN(C(=O)C(C)(C)c4ccccc4)CC3)C2)cc1Cl")
"< 4.52"
>>> readout_value("CN(C)C(=O)c1ccc(N[C@H]2CCCN(C3CCN(C(=O)[C@](O)(c4ccccc4)C(F)(F)F)CC3)C2)cc1Cl")
"< 4.52"
